test system: P. falciparum 3D7 growth, pLDH absorbance; assay: blood-stage malaria parasite growth potency – strain 3D7, dose response (AID 2305)
pIC50 reference
Would you please state pIC50, meaning minus log10 of the concentration in mol/L, as a bare number?

| compound | numeric-readout |
| --- | --- |
| O=[N+]([O-])c1ccc(C2=NN(S(=O)(=O)c3c(Cl)cc(Cl)cc3Cl)CCCC2)cc1 | 6.89 |

Data request: Which value of pIC50 has been reported for COc1cc([N+](=O)[O-])ccc1NC(=O)c1cc(Cl)ccc1O in the records?
Data returned: 5.94

Data request: Give its pIC50 value. Item: COc1ccc(S(=O)(=O)NC2CCN(c3ccnc4cc(Cl)ccc34)C2)cc1 (centres undefined)
Data returned: 6.31

Data request: For CCCCNc1c(C(=O)OCC)c(C)nc2c1[nH]c1ccccc12 , what is its reported pIC50?
Data returned: 6.17

* * *

system: P. falciparum 3D7 growth, pLDH absorbance; experiment: blood-stage malaria parasite growth potency – strain 3D7, dose response (AID 2305)
Let's look at some compounds and their measured pIC50.
Please express pIC50 as -log10 of the molar concentration.

Some solved cases for reference:
| compound | pIC50 |
| --- | --- |
| COc1ccc(-c2nc3c(N)nc(N)nc3nc2-c2ccccc2Cl)cc1 (tested in a mixture with another compound) | 6.26 |
| c1ccc(CN2CCC(NCc3ccc(-c4cncc5ccccc45)cc3)CC2)cc1 | 6.06 |
| Cc1ccc(NC(C)C(=O)Nc2ccccc2)cc1S(=O)(=O)N1CCCCCC1 (stereo unspecified) | 7.22 |
| C=C[C@]1(C)C[C@@H](OC(=O)CS[C@H]2CN3CC[C@H]2C3)[C@@]2(C)C3C(=O)CC[C@@]3(CC[C@H]2C)[C@@H](C)[C@@H]1O (stereo partly specified) | 6.16 |
| CN1CCC(N(Cc2ccc(-c3ccc(Cl)cc3)cc2)C(=O)Cn2c(CCc3cccc(F)c3F)cc(=O)c3ccccc32)CC1 | 6.07 |
| CCc1cn2c3c(cc(C(=O)N[C@@H](Cc4cc(F)cc(F)c4)[C@H](O)CNC4CCCCC4)cc13)N(C)S(=O)(=O)CC2 | 7.52 |

Data request: Consider the compound CC(C)CNC(=O)c1cncc(-c2ccc(CNCCCc3ccccc3)cc2)c1 and give its measured pIC50.
Data returned: 6.11

Data request: Which pIC50 value is on record for Cc1cc(C(=O)Nc2ccc(C)c(-c3nc(N(C(=O)c4ccc(F)c(C)c4)C4CCNCC4)nc4c3ccc(=O)n4-c3c(F)cccc3F)c2)ccc1F ?
Data returned: 6.49

Data request: Data request, read-out pIC50, for CC(C)(C)OC(=O)NCc1ccc(Nc2nnc(-c3ccc(OCC(=O)NCc4ccc(C(C)(C)C)cc4)c([N+](=O)[O-])c3)o2)cc1
Data returned: 6.10

Data request: Please give the measured pIC50 for this compound: Nc1nc(-c2ccc3c(Nc4ccc(F)c(Cl)c4)ccnc3c2)cs1
Data returned: 6.06

Data request: What value of measured pIC50 is listed for FC(F)(F)c1ccc2nccc(NN=Cc3ccccc3)c2c1 ?
Data returned: 5.93

Data request: Item under review: COc1ccccc1C1CC(c2ccc(Br)cc2)=NN1C(=O)c1ccccc1 (stereo unspecified) . Reported pIC50?
Data returned: 5.95

Data request: Entry O=C(c1cccc(-c2cccc(-c3nc4ccccc4[nH]3)c2)c1)N1CCCCC1CN1CCC(O)C1 (stereo unspecified) has what pIC50?
Data returned: 6.14

Data request: I am curious: what pIC50 value has been reported for CC(C)NCc1cccc(-c2ccc(-c3nc4ccccc4[nH]3)cc2)c1 ?
Data returned: 6.12

Data request: Reported pIC50 for O=C(Nc1ccc([N+](=O)[O-])cc1)Nc1nc2ccc(Cl)cc2s1 : what is it?
Data returned: 6.08

Data request: Fill in the blank: the reported pIC50 of CC(Cc1ccc(OCCCCOc2ccccc2)cc1)NCCCc1nc2ccccc2[nH]1 (stereo unspecified) is ____.
Data returned: 6.01

Data request: # query: pIC50 of entry COc1ccc2c(=O)ccn(CCN3CCC(NCc4ccc5c(n4)NC(=O)CS5)CC3)c2c1
Data returned: 6.64

Data request: So what's the measured pIC50 for this one? CS(=O)(=O)c1ccc(-c2cnc(N)c(-c3ccc(O)cc3)c2)cc1
Data returned: 5.87

* * *

pIC50 values for the compounds below.
tested on: P. falciparum 3D7 growth, pLDH absorbance; experiment: blood-stage malaria parasite growth potency – strain 3D7, dose response (AID 2305)
Friendly reminder that pIC50 comes from taking -log10 of the concentration in mol/L.

| compound | numeric-readout |
| --- | --- |
| NC(=O)c1cnc2cc(-c3ccncc3)cc(Nc3ccc(NC(=O)C4CCCCC4)cc3)c2c1 | 6.64 |
| Cc1ccc(Oc2ccccc2NC(=O)CCc2nc3ccccc3c(=O)[nH]2)cc1 | 6.08 |
| NC(=O)c1ccc(-n2cnc3cc(F)ccc32)cc1OCc1ccccc1C(F)(F)F (tested in a mixture with another compound) | 6.44 |
| Cc1[nH]c2ccc(O)cc2c1C1CCN(CC2CCC(NC(=O)/C=C/c3ccc(Cl)c(Cl)c3)CC2)CC1 (centres undefined) | 6.12 |
| CS(=O)(=O)CCNCc1ccc(-c2ccc3c(Nc4ccc(Cl)cc4F)ccnc3c2)o1 | 6.17 |
| O=C(Cc1ccc(NC(=O)c2ccc(O)c(-c3ccc(Cl)c(Cl)c3)c2)cc1)NCCN1CCCCC1 | 6.08 |
| COc1nc2c(CCN3CCC(NCc4ccc5c(n4)NC(=O)CO5)CC3)c(Cl)cnc2cc1F | 6.38 |
| COc1ccc(NS(=O)(=O)c2ccccc2Br)cc1N1CCN(C)CC1 | 6.01 |
| COc1cccc(CCc2nc3c(N4CCC(Cc5ccccc5)CC4)cccc3n2CC2CNCCO2)c1 (centres undefined) | 6.10 |
| Cc1cccc(NC(=O)NCc2ccccc2)n1 | 6.03 |

// below: pIC50 requested for another compound
Data request: # get_value(readout='pIC50', item= Cc1ccc(S(=O)(=O)N(CCCNCc2cccc(O)c2)c2ccccc2)cc1 )
Data returned: 6.11

* * *

tested on: P. falciparum 3D7 growth, pLDH absorbance; test: blood-stage malaria parasite growth potency – strain 3D7, dose response (AID 2305)
test-readout: IC50 (nM)
Please state the figure in nM; there is no need to write the unit.

The cases that follow already have their IC50 on record.
| compound-smiles | IC50 [nM] |
| --- | --- |
| O=C(Cc1ccccc1)NC1(c2ccccc2)CCN(CCc2c[nH]c3ccc(F)cc23)CC1 | 880 |
| O=S(=O)(NCCN1CCCC1)c1cccc(-c2cccc(CNCc3ccc(F)cc3)c2)c1 | 850 |
| COc1ccc(C(=O)N2CCN(c3ccc([N+](=O)[O-])c(NC4CC4)c3)CC2)cc1Br | 800 |
| CC(C)C[C@@H](/C=N/NC(N)=O)NC(=O)[C@H](CC(C)C)NC(=O)[C@H](CC(C)C)NC(=O)OCc1ccccc1 | 150 |

Data request: Query (compound): CCCCCCCCN1CCN(CCCCCCNc2c3ccccc3nc3ccccc23)CC1 ; field requested: IC50
Data returned: 160

* * *

system: P. falciparum 3D7 growth, pLDH absorbance; assay: blood-stage malaria parasite growth potency – strain 3D7, dose response (AID 2305)
test-readout: pIC50
Please treat pIC50 as minus the base-10 logarithm of the molar concentration.

// known answers, use as guide
| compound | test-readout | numeric-readout |
| --- | --- | --- |
| Cc1[nH]c(C)c(-c2ccc(CCc3ccc(F)cc3F)cc2)c(=O)c1Br | pIC50 | 8.00 |
| CCN(CC)CCNc1c2ccc(Cl)cc2nc2ccc(OC)nc12 | pIC50 | 6.13 |
| CC(C)N1CCC(N(Cc2ccc(-c3ccc(C(F)(F)F)cc3)cc2)C(=O)Cn2c(SCc3cccc(F)c3F)cc(=O)c3c2CCC3)CC1 | pIC50 | 5.94 |
| NC1CCN(Cc2ccc(-c3ccc(-c4nc5ccccc5[nH]4)s3)cc2)C1 (stereo unspecified) | pIC50 | 6.13 |
| Cc1nnsc1C(=O)Nc1ccc(-c2ccc(-c3nc4c(C)cccc4[nH]3)s2)cc1 | pIC50 | 6.23 |

Data request: Please report the recorded pIC50 for CC[C@H](C)CNC(=O)c1cncc(-c2cccc(CN(C)C3CCN(C)CC3)c2)c1 .
Data returned: 6.11

Data request: Dear colleague, I am looking for the recorded pIC50 of the following compound: COc1ccc2nccc([C@@H](O)CN3CCC(NCCOc4cc(C(F)(F)F)ccc4F)CC3)c2c1
Data returned: 6.96

Data request: Fill in the blank: the reported pIC50 of CCN(CC)CC(O)Cc1c2ccc([N+](=O)[O-])cc2nc2cc(OC)c(OC)cc12 (stereo unspecified) is ____.
Data returned: 6.13

Data request: What value of pIC50 has been recorded for this entry: COC(=O)CCCCOc1cc(Cc2cnc(N)nc2N)cc(OC)c1OC
Data returned: 6.77
